- assayNotes: Primary qHTS for delayed death inhibitors of the malarial parasite plastid, 48 hour incubation; also: potency is read from the fitted curve at half-maximal effect
- conditionParameters: P. falciparum luciferase growth in erythrocytes; series mostly up to 28.7 µM
About 18,000 (5.8%) of roughly 310,000 compounds were called active. Roughly 22% stayed inconclusive and do not appear here. The full list was thinned out, with actives kept by preference.
quantityKind: Potency

1) c1cnc(N2CCN(c3ccc4ccccc4n3)CC2)nc1 = inactive
2) CCOC(=O)N1CCC(NC(=O)c2cnn3ccccc23)CC1 = inactive
3) Cc1ccc(-n2ncc(C(=O)NC3CC3)c2C2CCN(C(=O)OC(C)(C)C)CC2)c(C)c1 = 10.4 µM (active)
4) Cc1ccccc1NC(=O)Cc1nc(COC(=O)c2cccnc2Cl)cs1 = inactive

Query O=C(N/N=C/c1ccoc1)c1ccc(Cl)cc1Cl yields Potency of inactive

Query CCO[C@H]1OC(C(=O)N2CCOCC2)=C[C@@H](c2ccc3c(c2)OCO3)[C@@H]1CCCO yields Potency of inactive

Query CN(CC(=O)Nc1ccc(OC(F)(F)F)cc1)C(=O)C1CCC1 yields Potency of inactive

Numbers sourced from PubChem BioAssay AID504832.
